EXPERIMENTAL_TARGET: rat liver monoaminoxydase
EXPERIMENT_NOTES: I.M.A.O. activity: inhibition of rat liver monoaminoxydase (spectrophotometric, kynuramine as substratum)
Format: biochemical
CONDITION_DESCRIPTION: 50% inhibition
ENDPOINT_NAME: pI 50

N=C(N)NN=CCOc1ccccc1Cl: 4.94
COc1cccc(OCC=NNC(=N)N)c1: 5.16
N=C(N)NN=CCOc1ccc(Cl)cc1: 4.70
COc1ccccc1OCC=NNC(=N)N: 4.94
N=C(N)NN=CCOc1cccc(Cl)c1: 4.70
COc1ccc(OCC=NNC(=N)N)cc1: 4.50
N=C(N)NN=CCOc1ccccc1: 4.90
